Each recorded value in this set is attributed to paper PMC7158045.

# targetSystem: ZmDRIK1-K217-S514 (Zea mays, UniProt C0P4K9)
# Construct: kinase domain, K217-S514
# procedureDetails: biochemical
# conditionDescription: read-out: dTm B, sheet ZmDRIK1-K217-S514;; DSF, Boltzmann fit, 0.1% DMSO
Structures can show the parent of a compound that is named as a salt.

compound: CN(C)CCOc1ccc(-c2nc(-c3ccncc3)c(-c3ccc4c(c3)CC/C4=N\O)[nH]2)cc1
unitSpec: °C
ΔTm at 10 µM: -0.286
--
compound: Cn1cc(C2=C(c3cn(CCCSC(=N)N)c4ccccc34)C(=O)NC2=O)c2ccccc21 [Ro 31-8220 Mesylate]
unitSpec: °C
ΔTm at 10 µM: -0.33
--
compound: O=C1c2ccc(Nc3ccc(F)cc3F)cc2CCc2ccc(OC[C@H](O)CO)cc21 [Skepinone-L]
unitSpec: °C
ΔTm at 10 µM: -0.642
--
compound: C[C@@H](N)[C@H]1CC[C@H](C(=O)Nc2ccncc2)CC1 [Y-27632 2HCl]
unitSpec: °C
ΔTm at 10 µM: -0.475

---

# targetSystem: ZmDRIK1-K217-S514 (Zea mays, UniProt C0P4K9)
# Construct: kinase domain, K217-S514
# Sequence (C0P4K9 1-514): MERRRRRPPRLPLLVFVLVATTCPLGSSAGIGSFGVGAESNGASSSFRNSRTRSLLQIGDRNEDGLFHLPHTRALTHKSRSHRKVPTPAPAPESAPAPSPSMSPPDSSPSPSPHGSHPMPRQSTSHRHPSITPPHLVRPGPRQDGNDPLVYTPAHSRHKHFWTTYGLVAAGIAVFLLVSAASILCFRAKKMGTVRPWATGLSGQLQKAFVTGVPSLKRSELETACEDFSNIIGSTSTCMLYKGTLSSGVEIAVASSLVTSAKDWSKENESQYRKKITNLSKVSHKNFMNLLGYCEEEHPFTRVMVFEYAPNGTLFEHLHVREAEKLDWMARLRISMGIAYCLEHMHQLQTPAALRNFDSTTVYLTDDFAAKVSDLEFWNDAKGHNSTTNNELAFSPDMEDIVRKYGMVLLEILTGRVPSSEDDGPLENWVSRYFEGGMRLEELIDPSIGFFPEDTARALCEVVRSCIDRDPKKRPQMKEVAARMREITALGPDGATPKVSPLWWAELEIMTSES
# procedureDetails: biochemical
# conditionDescription: read-out: dTm B, sheet ZmDRIK1-K217-S514;; DSF, Boltzmann fit, 0.1% DMSO
property: ΔTm at 10 µM (°C)

compound: O=C1Nc2ccc(I)cc2/C1=C/c1cc(Br)c(O)c(Br)c1 [GW5074]
result: 0.341
//
compound: CO[C@@H](C(=O)N1Cc2[nH]nc(NC(=O)c3ccc(N4CCN(C)CC4)cc3)c2C1)c1ccccc1 [Danusertib (PHA-739358)]
result: -0.209
//
compound: CCN1CCN(Cc2ccc(Nc3ncc(F)c(-c4cc(F)c5nc(C)n(C(C)C)c5c4)n3)nc2)CC1 [LY2835219]
result: -0.201
//
compound: O=C(Nc1cc(C(F)(F)F)cc(C(F)(F)F)c1)c1cc(Cl)ccc1O [IMD 0354]
result: 1.2
//
compound: COc1cc2c(Oc3ccc(NC(=O)C4(C(=O)Nc5ccc(F)cc5)CC4)cc3F)ccnc2cc1OCCCN1CCOCC1 [Foretinib (GSK1363089)]
result: -14.7
//
compound: CCN(CC)CCNC(=O)c1c(C)[nH]c(/C=C2\C(=O)Nc3ccc(F)cc32)c1C [Sunitinib Malate]
result: -0.287
//
compound: CC[C@@H]1C(=O)N(C)c2cnc(Nc3ccc(C(=O)N[C@H]4CC[C@H](N5CCN(CC6CC6)CC5)CC4)cc3OC)nc2N1C(C)C [Volasertib (BI 6727)]
result: -0.29
